- assay.target: CDK9/CyclinT1 (Homo sapiens (Human))
- Sequence (P50750 whole entry, species assumed): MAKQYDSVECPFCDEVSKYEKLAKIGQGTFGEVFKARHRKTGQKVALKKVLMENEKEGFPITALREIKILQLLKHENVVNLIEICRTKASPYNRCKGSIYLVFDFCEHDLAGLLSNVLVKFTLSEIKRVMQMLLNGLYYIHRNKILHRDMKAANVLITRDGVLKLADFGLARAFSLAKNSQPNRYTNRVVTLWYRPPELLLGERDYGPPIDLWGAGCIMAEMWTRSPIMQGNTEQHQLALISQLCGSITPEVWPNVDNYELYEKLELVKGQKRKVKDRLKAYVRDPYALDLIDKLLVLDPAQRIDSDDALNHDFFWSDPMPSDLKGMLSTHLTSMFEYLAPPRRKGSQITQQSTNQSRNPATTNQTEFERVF
- Sequence (O60563 whole entry partner, species assumed): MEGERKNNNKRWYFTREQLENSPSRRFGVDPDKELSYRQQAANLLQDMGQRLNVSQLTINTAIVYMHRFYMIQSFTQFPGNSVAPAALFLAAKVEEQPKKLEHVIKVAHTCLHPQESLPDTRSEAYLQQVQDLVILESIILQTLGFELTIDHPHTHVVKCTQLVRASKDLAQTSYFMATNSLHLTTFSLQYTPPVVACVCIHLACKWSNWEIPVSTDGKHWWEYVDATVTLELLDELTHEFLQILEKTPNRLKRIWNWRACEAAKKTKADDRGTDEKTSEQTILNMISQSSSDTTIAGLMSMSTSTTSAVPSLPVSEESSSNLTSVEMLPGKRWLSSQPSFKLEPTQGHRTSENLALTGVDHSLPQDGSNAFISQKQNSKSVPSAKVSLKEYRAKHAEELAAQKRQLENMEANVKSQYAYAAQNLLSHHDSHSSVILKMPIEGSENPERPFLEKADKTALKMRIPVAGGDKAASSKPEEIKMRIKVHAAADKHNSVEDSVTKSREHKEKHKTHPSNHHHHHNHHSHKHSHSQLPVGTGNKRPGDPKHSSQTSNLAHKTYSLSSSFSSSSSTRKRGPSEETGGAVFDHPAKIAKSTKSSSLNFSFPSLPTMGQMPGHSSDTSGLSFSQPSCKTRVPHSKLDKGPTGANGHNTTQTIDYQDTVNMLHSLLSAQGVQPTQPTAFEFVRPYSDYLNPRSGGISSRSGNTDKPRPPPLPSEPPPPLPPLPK
- assay.method.text: In vitro enzymatic inhibitory activity test, CDK9
- condition.description: Caliper mobility shift, 180 min at 27° C.
Where a name gives a salt, the structure may show the parent alone.
Would you mind telling me the reported IC50 of each entry?

Noted IC50 for FC(F)(F)c1cnc(N[C@H]2CCCNC2)nc1-c1c[nH]c2nc(N3C[C@@H]4C[C@H]3CO4)ccc12 , tested on CDK9/CyclinT1 (Homo sapiens (Human)): 3.43 µM

CDK9/CyclinT1 (Homo sapiens (Human)) data for N#CC1CCN(c2ccc3c(-c4nc(N[C@H]5CCCNC5)ncc4C(F)(F)F)c[nH]c3n2)CC1 ; its IC50: 2.97 µM

The reported IC50 value, CDK9/CyclinT1 (Homo sapiens (Human)), for CP(C)(=O)c1ccc2c(-c3nc(N[C@H]4CCCNC4)ncc3C(F)(F)F)c[nH]c2n1 reads 2.47 µM

Response field IC50 (CDK9/CyclinT1 (Homo sapiens (Human))) for item C[C@H]1CC[C@H](Nc2ncc(C(F)(F)F)c(-c3c[nH]c4nc(N5CCOC[C@@H]5C)ccc34)n2)CN1 : > 50 µM

Param item: FC(F)(F)c1cnc(N[C@H]2CCCNC2)nc1-c1c[nH]c2nc(N3CCCC4(CCOCC4)C3)ccc12 ; param system: CDK9/CyclinT1 (Homo sapiens (Human)); output IC50: 4.01 µM

Entry C[C@H]1COCCN1c1ccc2c(-c3nc(N[C@H]4CCC5(CC5)NC4)ncc3C(F)(F)F)c[nH]c2n1 under CDK9/CyclinT1 (Homo sapiens (Human)) had IC50 of > 50 µM

CDK9/CyclinT1 (Homo sapiens (Human)) IC50 of FC(F)(F)c1cnc(N[C@H]2CCCNC2)nc1-c1c[nH]c2nc(N3CC4CCC3CO4)ccc12 (stereo partly drawn) is 6.52 µM

Hey, CDK9/CyclinT1 (Homo sapiens (Human)) data for FC(F)(F)c1cnc(N[C@H]2CCCNC2)nc1-c1c[nH]c2nc(N3CC4CC(C3)O4)ccc12 : IC50 came out at 1.66 µM

Fill in: CDK9/CyclinT1 (Homo sapiens (Human)) IC50 for FC(F)(F)c1cnc(N[C@H]2CCCNC2)nc1-c1c[nH]c2nc(C3CCOCC3)ccc12 [Compound 28, formate] = 3.63 µM

Source of measurements: patent US20240132489A1
